assay-explanation: Quantitative High-Throughput drug screen in 47 multiple myeloma cell lines against the NCATS MIPE library collection: AMO1_DSMZ cell viability assay (AID 1918927; also: nearly all actives have a fitted effect of over 30% in size)
experimental-parameters: AMO1 myeloma cells viability, CellTiter-Glo ATP luminescence, 48 h; series mostly up to 45.8 µM
Records with an inconclusive call do not appear. Calls of active or inactive are those of the source. Calls follow the shape of the dose curve; as a rule, active = well fitted cell-killing curve with a large enough effect; inconclusive = small, poorly fitted or top-dose-only effect, or effect the other way; inactive = no such curve, though single readings can be large or run the other way.
Hello, when you answer, please use one of the following outcomes: 1 = active, 0 = inactive

// below: answered compounds
compound | label-value
C[C@@H]1CN(Cc2ccc(F)cc2)[C@@H](C)CN1C(=O)c1cc2c(C(=O)C(=O)N(C)C)cn(C)c2cc1Cl | 1
NC[C@H](O)c1ccc(O)c(O)c1 | 0
COc1ccc([C@@H]2CC(=O)c3c(O)cc(O[C@@H]4O[C@H](CO[C@@H]5O[C@@H](C)[C@H](O)[C@@H](O)[C@@H]5O)[C@@H](O)[C@H](O)[C@@H]4O)cc3O2)cc1O | 0
CC(C)(C)NCC(O)c1ccc(O)c(CO)c1 (centres undefined) | 0
COc1ccc(-c2c(-c3ccc(O)cc3O)n[nH]c2C)cc1 | 1

Which outcome was assigned to `CC(C)(N)C(=O)N[C@H](COCc1ccccc1)C(=O)N1CCC2(CC1)CN(S(C)(=O)=O)c1ccccc12` in this test?
0

Which outcome was assigned to `CCCc1nn(C)c2c(=O)[nH]c(-c3cc(S(=O)(=O)N4CCN(C)CC4)ccc3OCC)nc12` in this test?
0

Which outcome was assigned to `Cc1ccc(N(CC2=NCCN2)c2cccc(O)c2)cc1` in this test?
1

Which outcome was assigned to `CN(C)C(=O)c1ccc(S(=O)(=O)c2ccc(NC(=O)[C@@](C)(O)C(F)(F)F)c(Cl)c2)cc1` in this test?
1
